Assign EC50 to each entry below.
# Assay Protocol: NF-kB promoter reporter activators, neuronal cells, dose response, cell-based, SH-SY5Y, luciferase (AID 1241)
# Details: fold induction

In: Fill in: EC50 of "O=C(Nc1nc2ccc(Cl)cc2s1)c1ccco1" is ___
Out: 1190 nM

In: Same lookup for "COc1ccc(-c2cn3ccsc3n2)cc1" , please.
Out: 12500 nM

In: Same lookup for CC1=NC(=O)C(N=Nc2cccc(C(=O)O)c2)N1c1ccccc1 (centres undefined) , please.
Out: 781 nM

In: Same lookup for "N#C/C(=N\Nc1cccc(F)c1)C(=N)N1CCCCCC1" , please.
Out: 1640 nM

Data provenance: PubChem BioAssay AID1241
